Biological target: SIK (h) / SIK1 (Homo sapiens (Human), UniProt P57059)
Assay: SIK1 kinase activity, Eurofins KinaseProfiler ([γ-33P]-ATP filter assay)
Type: biochemical
Conditions: Table 6, macrocycles
MEASURE_NAME: IC50 (nM)
Provide the reading as a plain figure in nM.

Here are 4 compounds together with their reported answers.
1) Cc1cccc(C)c1N1Cc2cnc3nc2N(CCCCOC(=O)Cc2cc(ccc2N2CCN(C)CC2)N3)C1=O; 286
2) COc1cc(Br)c2cc1Nc1ncc3c(n1)N(CCCC(=O)OC2)C(=O)N(c1c(C)cccc1C)C3; 26
3) Cc1cccc(C)c1N1Cc2cnc3nc2N(CCCC(=O)OCc2cc(ccc2N2CCN(C)CC2)N3)C1=O; 2
4) Cc1cccc(C)c1N1Cc2cnc3nc2N(CCC(=O)OCc2cc(ccc2N2CCN(C)CC2)N3)C1=O; 3

Please look at the following compound next.
Query block: State the recorded IC50 for this entry: `Cc1cccc(C)c1N1Cc2cnc3nc2N(CCCCOC(=O)c2cc(ccc2N2CCN(C)CC2)N3)C1=O`
Result block: 2
